Attribution: ChEMBL document CHEMBL1153895

# EXPERIMENTAL_TARGET: Insulin-like growth factor 1 receptor (Homo sapiens)
# METHOD_NOTES: Inhibition of human IGF1R phosphorylation expressed in HEK293 cells by DELFIA
# Assay type: cell-based
ASSAY_ENDPOINT: IC50 (nM)

[a] COc1cc(N2CCN(C(C)C)CC2)ccc1Nc1nc(Nc2cccc(F)c2C(N)=O)c2cc[nH]c2n1
[b] COc1cc(N2CCN(C(C)C)CC2)ccc1Nc1nc(Nc2ccc(F)c(F)c2C(N)=O)c2cc[nH]c2n1
Param metric = IC50; output whichever of a , b has the minimum value. Returns: label corresponding to the selected item.
a

###

# METHOD_NOTES: Cmax in rat at 1.7 mg/kg, iv and 10.5 mg/kg, po
# Type: ADME, organism-based
# PARTICULARS: in vivo
ASSAY_ENDPOINT: Cmax (ng/mL)
// return numeric value only (unit: ng/mL, not printed)

For COc1cc(N2CCN(C(C)C)CC2)ccc1Nc1nc(Nc2ccccc2C(N)=O)c2cc[nH]c2n1 , what is its reported Cmax?
69

###

# METHOD_NOTES: Bioavailability in rat at 1.7 mg/kg, iv and 10.5 mg/kg, po
# Assay type: ADME, organism-based
# PARTICULARS: in vivo
ASSAY_ENDPOINT: bioavailability (%)
The reply should be a number in %, with the unit left off.

What does the record list as bioavailability for COc1cc(N2CCN(C(C)C)CC2)ccc1Nc1nc(Nc2ccccc2C(N)=O)c2cc[nH]c2n1 ?
37

###

# METHOD_NOTES: Volume of distribution at steady state in rat at 1.7 mg/kg, iv and 10.5 mg/kg, po
# Type: ADME, organism-based
# PARTICULARS: in vivo, read-out: Vdss
ASSAY_ENDPOINT: Vd (L/kg)
Numbers only; they are read as L/kg.

Returns the measured Vd for the input compound. Input: COc1cc(N2CCN(C(C)C)CC2)ccc1Nc1nc(Nc2ccccc2C(N)=O)c2cc[nH]c2n1
19.5

###

# METHOD_NOTES: Bioavailability in rat at 2.3 mg/kg, iv and 10.7 mg/kg, po
# Assay type: ADME, organism-based
# PARTICULARS: in vivo
ASSAY_ENDPOINT: bioavailability (%)
Give the value in % but do not write % after it.

I'd like to know its bioavailability. The compound in question is COc1cc(N2CCN(C(C)C)CC2)ccc1Nc1nc(Nc2cc(F)cc(F)c2C(N)=O)c2cc[nH]c2n1
37

###

# METHOD_NOTES: Bioavailability in rat at 4.2 mg/kg, iv and 13.6 mg/kg, po
# Assay type: ADME, organism-based
# PARTICULARS: in vivo
ASSAY_ENDPOINT: bioavailability (%)
The figure you give is taken to be in %; do not add the unit.

Quick one: bioavailability for COc1cc(N2CCN(C(C)C)CC2)ccc1Nc1nc(Nc2cc(F)c(F)cc2C(N)=O)c2cc[nH]c2n1 ?
45

###

# METHOD_NOTES: Clearance in rat at 1.7 mg/kg, iv
# Type: ADME, organism-based
# Design: dose 1.7 mg/kg, route intravenous
# PARTICULARS: in vivo
ASSAY_ENDPOINT: clearance (mL/min/kg)
Return type: number; implicit unit mL/min/kg.

Could you tell me which clearance is on file for COc1cc(N2CCN(C(C)C)CC2)ccc1Nc1nc(Nc2ccccc2C(N)=O)c2cc[nH]c2n1 ?
142

###

# EXPERIMENTAL_TARGET: ALK tyrosine kinase receptor (Homo sapiens, UniProt Q9UM73)
# Sequence (Q9UM73 whole entry): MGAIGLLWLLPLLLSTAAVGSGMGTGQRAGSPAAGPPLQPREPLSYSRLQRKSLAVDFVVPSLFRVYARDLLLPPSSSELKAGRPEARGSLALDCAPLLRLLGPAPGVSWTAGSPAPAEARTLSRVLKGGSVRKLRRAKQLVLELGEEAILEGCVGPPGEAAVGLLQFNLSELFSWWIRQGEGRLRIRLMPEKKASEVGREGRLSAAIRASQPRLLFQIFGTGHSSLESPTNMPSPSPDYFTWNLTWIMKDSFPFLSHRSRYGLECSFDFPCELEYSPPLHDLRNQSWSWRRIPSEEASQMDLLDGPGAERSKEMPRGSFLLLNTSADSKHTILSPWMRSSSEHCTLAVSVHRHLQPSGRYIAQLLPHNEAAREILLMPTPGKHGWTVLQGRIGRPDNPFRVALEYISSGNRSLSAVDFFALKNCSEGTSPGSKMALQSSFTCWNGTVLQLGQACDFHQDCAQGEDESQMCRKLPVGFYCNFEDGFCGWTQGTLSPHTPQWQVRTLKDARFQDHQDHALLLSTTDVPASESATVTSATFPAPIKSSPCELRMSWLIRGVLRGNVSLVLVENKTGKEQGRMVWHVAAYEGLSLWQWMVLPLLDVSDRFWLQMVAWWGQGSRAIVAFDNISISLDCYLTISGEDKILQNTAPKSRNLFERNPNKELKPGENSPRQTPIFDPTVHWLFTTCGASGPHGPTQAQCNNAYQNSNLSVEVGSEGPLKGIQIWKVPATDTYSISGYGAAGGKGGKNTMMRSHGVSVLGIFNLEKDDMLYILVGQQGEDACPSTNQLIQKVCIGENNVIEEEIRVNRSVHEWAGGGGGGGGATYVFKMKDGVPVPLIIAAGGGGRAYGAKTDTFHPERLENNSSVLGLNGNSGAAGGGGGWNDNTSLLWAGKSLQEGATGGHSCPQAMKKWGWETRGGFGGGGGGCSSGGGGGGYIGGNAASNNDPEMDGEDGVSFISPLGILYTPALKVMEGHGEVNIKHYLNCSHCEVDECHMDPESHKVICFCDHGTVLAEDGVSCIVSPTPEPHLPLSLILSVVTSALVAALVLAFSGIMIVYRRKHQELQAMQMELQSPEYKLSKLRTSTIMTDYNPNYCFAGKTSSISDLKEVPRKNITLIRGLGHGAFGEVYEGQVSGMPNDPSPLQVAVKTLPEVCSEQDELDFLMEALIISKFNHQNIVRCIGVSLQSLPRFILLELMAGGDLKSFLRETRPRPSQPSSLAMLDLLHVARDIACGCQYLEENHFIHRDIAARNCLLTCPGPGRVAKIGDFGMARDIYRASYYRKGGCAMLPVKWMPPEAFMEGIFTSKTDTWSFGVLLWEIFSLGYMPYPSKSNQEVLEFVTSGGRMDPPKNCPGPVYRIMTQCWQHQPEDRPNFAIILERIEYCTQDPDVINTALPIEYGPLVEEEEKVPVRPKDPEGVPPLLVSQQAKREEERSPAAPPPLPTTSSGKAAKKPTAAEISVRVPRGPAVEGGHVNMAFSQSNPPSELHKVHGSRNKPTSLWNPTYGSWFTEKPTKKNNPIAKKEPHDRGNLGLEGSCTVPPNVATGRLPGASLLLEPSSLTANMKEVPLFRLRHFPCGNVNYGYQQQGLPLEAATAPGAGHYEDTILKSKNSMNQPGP
ASSAY_ENDPOINT: pIC50
Worth noting: pIC50 values are minus log10 of concentrations stated in mol/L.

Record request: pIC50 value, item CCCN1CCC=C(c2ccc(Nc3nc(Nc4ccccc4C(N)=O)c4cc[nH]c4n3)c(C)c2)C1 [GSK-994854A]
9.00

###

# EXPERIMENTAL_TARGET: Mitogen-activated protein kinase 8 (Homo sapiens, UniProt P45983)
# Sequence (P45983 whole entry): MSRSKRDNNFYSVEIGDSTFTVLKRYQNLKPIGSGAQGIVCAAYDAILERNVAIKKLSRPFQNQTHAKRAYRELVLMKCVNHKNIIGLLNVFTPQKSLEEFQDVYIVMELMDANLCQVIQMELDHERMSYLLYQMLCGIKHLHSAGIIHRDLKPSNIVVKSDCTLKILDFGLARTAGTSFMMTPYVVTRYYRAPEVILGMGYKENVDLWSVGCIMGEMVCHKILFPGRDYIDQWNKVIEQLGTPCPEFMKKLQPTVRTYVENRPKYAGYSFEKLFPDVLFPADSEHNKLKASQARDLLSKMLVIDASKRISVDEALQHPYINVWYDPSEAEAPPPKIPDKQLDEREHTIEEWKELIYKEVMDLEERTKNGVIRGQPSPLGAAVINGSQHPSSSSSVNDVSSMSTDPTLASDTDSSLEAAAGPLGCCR
# METHOD_NOTES: Inhibition of JNK1
ASSAY_ENDPOINT: pIC50
Field pIC50 (float): negative decimal logarithm of the concentration in molar.

Query pIC50 on Mitogen-activated protein kinase 8 (Homo sapiens, UniProt P45983) for CCCN1CCC=C(c2ccc(Nc3nc(Nc4ccccc4C(N)=O)c4cc[nH]c4n3)c(C)c2)C1 [GSK-994854A]
7.92

###

# EXPERIMENTAL_TARGET: Insulin-like growth factor 1 receptor (Homo sapiens, UniProt P08069)
# Sequence (P08069 31-736 limits assumed): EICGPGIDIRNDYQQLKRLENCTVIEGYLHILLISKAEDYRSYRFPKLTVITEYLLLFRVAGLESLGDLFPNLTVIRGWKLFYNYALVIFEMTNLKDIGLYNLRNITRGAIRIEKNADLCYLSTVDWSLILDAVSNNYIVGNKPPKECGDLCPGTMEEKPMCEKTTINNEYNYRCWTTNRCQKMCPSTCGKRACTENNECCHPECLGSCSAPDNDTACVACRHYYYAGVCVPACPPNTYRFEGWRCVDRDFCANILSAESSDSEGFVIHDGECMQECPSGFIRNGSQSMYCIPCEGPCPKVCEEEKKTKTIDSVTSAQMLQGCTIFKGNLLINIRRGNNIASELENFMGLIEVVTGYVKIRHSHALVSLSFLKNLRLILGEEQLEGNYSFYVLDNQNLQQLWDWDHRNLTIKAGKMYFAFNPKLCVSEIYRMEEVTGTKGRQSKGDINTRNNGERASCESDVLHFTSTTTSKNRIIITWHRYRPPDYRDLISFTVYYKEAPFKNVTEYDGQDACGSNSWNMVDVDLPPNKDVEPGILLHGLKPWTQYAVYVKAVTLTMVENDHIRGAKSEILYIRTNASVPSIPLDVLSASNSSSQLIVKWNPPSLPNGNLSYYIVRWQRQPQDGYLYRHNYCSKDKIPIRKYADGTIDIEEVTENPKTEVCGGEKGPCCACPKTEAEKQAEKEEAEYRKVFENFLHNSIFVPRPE
# Sequence (P08069 741-1367 limits assumed): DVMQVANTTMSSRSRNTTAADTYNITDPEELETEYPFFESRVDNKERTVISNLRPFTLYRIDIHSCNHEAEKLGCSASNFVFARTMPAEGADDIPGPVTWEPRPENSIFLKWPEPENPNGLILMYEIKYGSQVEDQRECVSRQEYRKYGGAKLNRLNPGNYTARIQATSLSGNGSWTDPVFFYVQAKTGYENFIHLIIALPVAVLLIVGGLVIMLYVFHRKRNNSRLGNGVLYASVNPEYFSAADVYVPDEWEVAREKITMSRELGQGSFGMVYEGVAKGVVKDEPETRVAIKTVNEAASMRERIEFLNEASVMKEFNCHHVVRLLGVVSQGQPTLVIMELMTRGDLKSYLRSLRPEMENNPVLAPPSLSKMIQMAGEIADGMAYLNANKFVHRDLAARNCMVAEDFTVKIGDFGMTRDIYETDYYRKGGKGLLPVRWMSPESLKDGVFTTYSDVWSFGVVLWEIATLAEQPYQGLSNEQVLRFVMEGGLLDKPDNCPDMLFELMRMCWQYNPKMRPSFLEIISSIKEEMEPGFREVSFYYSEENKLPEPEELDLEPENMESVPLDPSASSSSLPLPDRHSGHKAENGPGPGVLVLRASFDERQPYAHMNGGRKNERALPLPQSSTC
# METHOD_NOTES: Inhibition of human IGF1R phosphorylation expressed in HEK293 cells by DELFIA
# Format: cell-based
ASSAY_ENDPOINT: IC50 (nM)

Check out these entries, answers already filled in.
COc1cc(N2CCN(C(C)C)CC2)c(Cl)cc1Nc1nc(Nc2cccc(F)c2C(N)=O)c2cc[nH]c2n1: 65
COc1cc(N2CCN(C(C)C)CC2)c(C)cc1Nc1nc(Nc2cccc(F)c2C(N)=O)c2cc[nH]c2n1: 38
COc1cc(N2CCOCC2)ccc1Nc1nc(Nc2cc(F)ccc2C(N)=O)c2cc[nH]c2n1: 68

[1] CNC(=O)c1c(F)cccc1Nc1nc(Nc2ccc(N3CCN(C(C)C)CC3)cc2OC)nc2[nH]ccc12
[2] COc1cc(N2CCN(C(C)C)CC2)ccc1Nc1nc(Nc2cc(F)c(F)cc2C(N)=O)c2cc[nH]c2n1
[3] COc1cc(N2CCN(C(C)C)CC2)ccc1Nc1nc(Nc2ccc(F)cc2C(=O)NO)c2cc[nH]c2n1
Place the items in sequence of falling IC50. Answer format: the labels, ordered as requested.
3, 1, 2

###

# EXPERIMENTAL_TARGET: Insulin-like growth factor 1 receptor (Homo sapiens)
# METHOD_NOTES: Inhibition of human IGF1R phosphorylation expressed in HEK293 cells by DELFIA
# Type: cell-based
pIC50: −log10 of the molar value.
ASSAY_ENDPOINT: pIC50

Example results:
CCCN1CCN(c2ccc(Nc3nc(Nc4cc(F)ccc4C(N)=O)c4cc[nH]c4n3)c(OC)c2)CC1: 6.91
COc1cc(N2CCN(C(C)C)CC2)ccc1Nc1nc(Nc2cc(F)cc(F)c2C(N)=O)c2cc[nH]c2n1: 7.05

[I] CCCN1CCC=C(c2ccc(Nc3nc(Nc4ccccc4C(N)=O)c4cc[nH]c4n3)c(OC)c2)C1
[II] COc1cc(N2CCN(C(C)C)CC2)c(F)cc1Nc1nc(Nc2cccc(F)c2C(N)=O)c2cc[nH]c2n1
[III] CCCN1CCC(c2ccc(Nc3nc(Nc4cc(F)ccc4C(N)=O)c4cc[nH]c4n3)c(OC)c2)CC1 [GSK-1326255A]
[IV] CCCN1CCC=C(c2ccc(Nc3nc(Nc4ccccc4C(N)=O)c4cc[nH]c4n3)c(F)c2)C1
[V] CCCN1CCC=C(c2ccc(Nc3nc(Nc4cc(F)ccc4C(N)=O)c4cc[nH]c4n3)c(OC(C)C)c2)C1
List the 5 entries from lowest pIC50 to highest pIC50 value. Answer by listing the labels in the requested order.
V, IV, II, I, III

###

# METHOD_NOTES: Clearance in rat at 4.2 mg/kg, iv
# Format: ADME, organism-based
# Design: dose 4.2 mg/kg, route intravenous
# PARTICULARS: in vivo
ASSAY_ENDPOINT: clearance (mL/min/kg)
All answers are understood in mL/min/kg, so give the number only.

Would you kindly share the measured clearance for COc1cc(N2CCN(C(C)C)CC2)ccc1Nc1nc(Nc2cc(F)c(F)cc2C(N)=O)c2cc[nH]c2n1 ?
64

###

# METHOD_NOTES: Cmax in rat at 2.1 mg/kg, iv and 9.2 mg/kg, po
# Type: ADME, organism-based
# PARTICULARS: in vivo
ASSAY_ENDPOINT: Cmax (ng/mL)
Quick reminder: number only, in ng/mL, skip the unit.

Record request: Cmax value, item COc1cc(N2CCN(C(C)C)CC2)ccc1Nc1nc(Nc2cccc(F)c2C(N)=O)c2cc[nH]c2n1
184

###

# EXPERIMENTAL_TARGET: Insulin-like growth factor 1 receptor (Homo sapiens, UniProt P08069)
# METHOD_NOTES: Inhibition of GST-tagged human IGF1R expressed in Sf9 cells by Wallac Victor fluorometer
pIC50: −log10 of the molar value.
ASSAY_ENDPOINT: pIC50

CCCN1CCC=C(c2ccc(Nc3nc(Nc4cc(F)ccc4C(N)=O)c4cc[nH]c4n3)c(OC(C)C)c2)C1: 8.49

[a] CNC(=O)c1cc(F)ccc1Nc1nc(Nc2ccc(N3CCN(C(C)C)CC3)cc2OC)nc2[nH]ccc12
[b] CCCN1CCC=C(c2ccc(Nc3nc(Nc4ccccc4C(N)=O)c4cc[nH]c4n3)c(C(F)(F)F)c2)C1
Kindly compare a with b and tell me which has the lower pIC50 figure. Give the label of your selection.
b
